Reported values of IC50 for individual entries
procedureSummary: Antineuroinflammatory activity in LPS-stimulated rat neonatal microglia assessed as inhibition of PMA-induced TXB2 production preincubated 15 mins prior to PMA challenge measured after 70 mins
Format: functional, cell-based

>  <compound>
Cn1c2ccccc2c2ccnc(C3=C[C@@]4(O)CC/C=C\CCCCN5CC[C@@H]3[C@]3(C[C@@H]6/C=C\CCCCN6[C@H]34)C5)c21 [9-N-METHYLMANZAMINE A]

>  <observedValue>
> 10 µM

$$$$
>  <compound>
O[C@]12C=C(c3nccc4c3[nH]c3ccccc34)[C@@H]3CCN(CCCC/C=C\CC1)C[C@@]31C[C@@H]3/C=C\CCCCN3[C@H]12 [MANZAMINE A]

>  <observedValue>
< 0.1 µM

$$$$
>  <compound>
CCCn1c2ccccc2c2ccnc(C3=C[C@@]4(O)CC/C=C\CCCCN5CC[C@@H]3[C@]3(C[C@@H]6/C=C\CCCCN6[C@H]34)C5)c21 [9-N-PROPYLMANZAMINE A]

>  <observedValue>
> 10 µM

$$$$

Now for the compound whose IC50 we want.
The recorded IC50 for entry CCn1c2ccccc2c2ccnc(C3=C[C@@]4(O)CC/C=C\CCCCN5CC[C@@H]3[C@]3(C[C@@H]6/C=C\CCCCN6[C@H]34)C5)c21 [9-N-ETHYLMANZAMINE A] equals > 10 µM

Origin of values: ChEMBL document CHEMBL1157729
